# collection of AC50 values tested on Growth hormone secretagogue receptor type 1 (Homo sapiens); further: assay procedure not described here
# Sequence (Q92847 whole entry): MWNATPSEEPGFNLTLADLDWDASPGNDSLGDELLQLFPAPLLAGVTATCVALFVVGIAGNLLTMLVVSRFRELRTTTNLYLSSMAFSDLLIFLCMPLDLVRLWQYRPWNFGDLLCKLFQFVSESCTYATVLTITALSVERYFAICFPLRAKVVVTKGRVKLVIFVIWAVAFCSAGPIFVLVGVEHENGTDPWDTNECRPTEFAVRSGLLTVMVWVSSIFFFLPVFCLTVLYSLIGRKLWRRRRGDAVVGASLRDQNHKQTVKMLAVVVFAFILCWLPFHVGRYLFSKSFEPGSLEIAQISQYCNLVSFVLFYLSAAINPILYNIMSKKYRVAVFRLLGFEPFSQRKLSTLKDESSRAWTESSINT

{"Molecule": "COC(=O)CCc1ccc(OCC(O)CNC(C)C)cc1 (stereo unspecified) [ESMOLOL]", "Data Value": "> 30 µM"}
{"Molecule": "CCC(=O)O[C@H](CC(=O)O)C[N+](C)(C)C [LEVOCARNITINE PROPIONATE]", "Data Value": "> 30 µM"}
{"Molecule": "O=C(c1ccccc1)c1ccc2n1CCC2C(=O)O (stereo unspecified) [KETOROLAC]", "Data Value": "> 10 µM"}
{"Molecule": "CCOc1cc2ncc(C#N)c(Nc3ccc(OCc4ccccn4)c(Cl)c3)c2cc1NC(=O)/C=C/CN(C)C [NERATINIB]", "Data Value": "3.2 µM"}

Tested system Growth hormone secretagogue receptor type 1 (Homo sapiens); AC50 recorded for CCOCC(O)COc1ccc(NC(=O)CC[S+](C)C)cc1 (stereo unspecified) was > 30 µM

Form field, AC50 with Growth hormone secretagogue receptor type 1 (Homo sapiens), item CC(=O)[C@@]1(O)CC[C@H]2[C@@H]3C[C@H](C)C4=CC(=O)C=C[C@]4(C)[C@@]3(F)[C@@H](O)C[C@@]21C [FLUOROMETHOLONE] : > 10 µM

Noted AC50 for CC(=O)Oc1ccccc1C(=O)O [ASPIRIN] , tested on Growth hormone secretagogue receptor type 1 (Homo sapiens): > 30 µM

Record for CCN(C(C)=O)c1cccc(-c2ccnc3c(C#N)cnn23)c1 [ZALEPLON] under target or system Growth hormone secretagogue receptor type 1 (Homo sapiens): AC50 reported as > 30 µM

Item COc1cc(N)cn[n+]1-c1ccccc1 [AMEZINIUM METILSULFATE] ; assay system Growth hormone secretagogue receptor type 1 (Homo sapiens); AC50 reported as > 30 µM

---

- Experimental Target: 5-hydroxytryptamine receptor 1A (Homo sapiens, UniProt P08908); further: assay procedure not described here
- Sequence (P08908 whole entry): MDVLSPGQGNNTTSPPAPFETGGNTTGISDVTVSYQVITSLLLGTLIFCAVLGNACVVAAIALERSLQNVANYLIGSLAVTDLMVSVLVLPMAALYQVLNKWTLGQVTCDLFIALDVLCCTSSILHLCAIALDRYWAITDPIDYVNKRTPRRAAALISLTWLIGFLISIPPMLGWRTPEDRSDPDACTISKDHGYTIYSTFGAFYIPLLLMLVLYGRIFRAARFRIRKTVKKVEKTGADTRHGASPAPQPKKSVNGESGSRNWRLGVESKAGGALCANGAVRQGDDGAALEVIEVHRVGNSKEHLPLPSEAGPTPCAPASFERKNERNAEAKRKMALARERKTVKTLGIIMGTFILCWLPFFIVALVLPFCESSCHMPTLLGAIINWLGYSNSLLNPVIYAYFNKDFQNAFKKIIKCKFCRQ
- Assay type: functional, cell-based
Quantity Measured: AC50

{"Compound": "CN1CCCN=C1/C=C/c1cccc(O)c1 [OXANTEL]", "Quantity Measured": "AC50", "Data Value": "> 30 µM"}
{"Compound": "CCOC(=O)O[C@]1(C(=O)COC(=O)CC)CC[C@H]2[C@@H]3CCC4=CC(=O)C=C[C@]4(C)[C@H]3[C@@H](O)C[C@@]21C [PREDNICARBATE]", "Quantity Measured": "AC50", "Data Value": "> 10 µM"}
{"Compound": "NCCCNCCSP(=O)(O)O [AMIFOSTINE]", "Quantity Measured": "AC50", "Data Value": "> 30 µM"}
{"Compound": "CN1C(=O)CN=C(c2ccccc2F)c2cc([N+](=O)[O-])ccc21 [FLUNITRAZEPAM]", "Quantity Measured": "AC50", "Data Value": "> 10 µM"}
{"Compound": "CC(C)(CO)c1cc2cc(NC(=O)C3(c4ccc5c(c4)OC(F)(F)O5)CC3)c(F)cc2n1C[C@@H](O)CO [TEZACAFTOR]", "Quantity Measured": "AC50", "Data Value": "> 10 µM"}

Record CCN1C(=O)NC(c2ccccc2)C1=O (stereo unspecified) [ETHOTOIN] , field AC50: > 30 µM

Record c1cnc2cc3c(cc2n1)[C@@H]1CNC[C@H]3C1 [VARENICLINE] , field AC50: > 30 µM

---

Property: AC50; scope: individual compounds
- Experimental Target: B2 bradykinin receptor (Homo sapiens); further: assay procedure not described here
- Sequence (P30411 whole entry): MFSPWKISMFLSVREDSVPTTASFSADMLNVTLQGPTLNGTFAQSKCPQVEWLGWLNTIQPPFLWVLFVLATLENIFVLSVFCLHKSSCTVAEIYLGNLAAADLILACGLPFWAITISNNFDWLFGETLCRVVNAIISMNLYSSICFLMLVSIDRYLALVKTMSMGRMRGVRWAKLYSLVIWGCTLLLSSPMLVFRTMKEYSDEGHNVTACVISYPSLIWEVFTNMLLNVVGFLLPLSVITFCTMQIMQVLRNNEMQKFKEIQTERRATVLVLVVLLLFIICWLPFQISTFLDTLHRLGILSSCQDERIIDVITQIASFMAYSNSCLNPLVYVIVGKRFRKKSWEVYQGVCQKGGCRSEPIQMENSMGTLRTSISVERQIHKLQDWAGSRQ
Where a SMILES comes first, the peptide text is derived from it.

Known results for compounds:
{"Compound": "CCN(CC)CCCN(c1ccccc1)C1Cc2ccccc2C1 [APRINDINE]", "AC50": "> 30 µM"}
{"Compound": "CS(=O)(=O)Nc1ccc([N+](=O)[O-])cc1Oc1ccccc1 [NIMESULIDE]", "AC50": "20 µM"}
{"Compound": "O=C(O[C@H]1C[N+]2(CCCOc3ccccc3)CCC1CC2)C(O)(c1cccs1)c1cccs1 [ACLIDINIUM BROMIDE]", "AC50": "> 30 µM"}
{"Compound": "Cc1ccc(S(=O)(=O)NC(=O)N[C@H]2[C@H]3CC[C@@](C)([C@H]2O)C3(C)C)cc1 [GLIBORNURIDE]", "AC50": "> 30 µM"}
{"Compound": "C[C@H](N)C(=O)N[C@@H](CCC(N)=O)C(=O)O [ALANYL GLUTAMINE] (H-Ala-Gln-OH)", "AC50": "> 30 µM"}

# compound CCOC(=O)C1=C(C)NC(C)=C(C(=O)OC)C1c1cccc(Cl)c1Cl (centres undefined) [FELODIPINE] ; its AC50 = > 30 µM

Recorded AC50 (compound CCN1C(=O)NC(c2ccccc2)C1=O (centres undefined) [ETHOTOIN] ): > 30 µM

Entry COc1ccc(-n2nc(C(N)=O)c3c2C(=O)N(c2ccc(N4CCCCC4=O)cc2)CC3)cc1 [APIXABAN] ; AC50 = > 30 µM

Record CN(C)CCN(Cc1ccccc1)c1ccccn1 [TRIPELENNAMINE] . Reported AC50: > 10 µM

---

Readings of AC50 for the listed molecules
- Experimental Target: Melanocortin receptor 4 (Homo sapiens, UniProt P32245); further: assay procedure not described here
- Sequence (P32245 whole entry): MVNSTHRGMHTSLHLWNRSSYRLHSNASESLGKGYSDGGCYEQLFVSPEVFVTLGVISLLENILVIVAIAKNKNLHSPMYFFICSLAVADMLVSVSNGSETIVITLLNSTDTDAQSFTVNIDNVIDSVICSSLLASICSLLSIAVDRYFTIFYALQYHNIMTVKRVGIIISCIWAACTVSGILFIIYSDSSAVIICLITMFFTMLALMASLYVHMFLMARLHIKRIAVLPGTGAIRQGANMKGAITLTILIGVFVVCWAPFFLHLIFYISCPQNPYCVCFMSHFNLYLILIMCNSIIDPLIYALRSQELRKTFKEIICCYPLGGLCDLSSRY

{"Molecule": "C[C@H](Cn1cnc2c(N)ncnc21)OCP(=O)(O)O [TENOFOVIR ANHYDROUS]", "Data Value": "> 30 µM"}
{"Molecule": "OCCN(CCO)c1nc(N2CCCCC2)c2nc(N(CCO)CCO)nc(N3CCCCC3)c2n1", "Data Value": "> 30 µM"}
{"Molecule": "COC(=O)[C@H]1[C@H]2C[C@@H]3c4[nH]c5ccccc5c4CCN3C[C@H]2C[C@@H](OC(=O)c2cc(OC)c(OC)c(OC)c2)[C@@H]1OC", "Data Value": "8.6 µM"}

Item CN1C(=O)CN=C(c2ccccc2F)c2cc([N+](=O)[O-])ccc21 ; assay system Melanocortin receptor 4 (Homo sapiens, UniProt P32245); AC50 reported as > 30 µM

Sample CCC1(c2ccccc2)C(=O)NCNC1=O , system: Melanocortin receptor 4 (Homo sapiens, UniProt P32245). Its AC50 is > 10 µM

---

- Experimental Target: UniProt P37288
- Sequence (P37288 whole entry): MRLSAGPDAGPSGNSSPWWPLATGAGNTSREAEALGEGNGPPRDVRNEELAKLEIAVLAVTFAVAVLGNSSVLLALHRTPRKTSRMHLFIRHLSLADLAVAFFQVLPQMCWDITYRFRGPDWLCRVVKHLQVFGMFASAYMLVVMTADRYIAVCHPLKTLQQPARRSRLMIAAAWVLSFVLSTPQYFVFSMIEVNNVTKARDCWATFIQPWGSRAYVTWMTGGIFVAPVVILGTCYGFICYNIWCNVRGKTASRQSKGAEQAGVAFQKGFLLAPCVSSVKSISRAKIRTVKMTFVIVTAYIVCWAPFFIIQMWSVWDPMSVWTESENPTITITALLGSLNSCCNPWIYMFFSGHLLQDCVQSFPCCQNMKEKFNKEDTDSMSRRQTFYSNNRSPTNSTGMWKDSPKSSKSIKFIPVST
Quantity Measured: AC50

# count of solved cases: 4
{"Compound": "CS(=O)(=O)Nc1ccc([N+](=O)[O-])cc1Oc1ccccc1 [NIMESULIDE]", "AC50": "> 30 µM"}
{"Compound": "CCCCCCCC(=O)CC[C@@H]1[C@@H](C/C=C\\CCCC(=O)O)[C@@H](O)C[C@H]1O", "AC50": "> 30 µM"}
{"Compound": "CC(C)/N=c1\\cc2n(-c3ccc(Cl)cc3)c3ccccc3nc-2cc1Nc1ccc(Cl)cc1", "AC50": "> 30 µM"}
{"Compound": "CC(NC(C)(C)C)C(=O)c1cccc(Cl)c1 (stereo not drawn)", "AC50": "> 10 µM"}

Readout AC50 for CS(=O)(=O)NC(=O)CCC/C=C\C[C@H]1C(=O)C[C@@H](O)[C@@H]1/C=C/[C@@H](O)COc1ccccc1 , test system UniProt P37288, was > 30 µM

Measured on UniProt P37288, O=c1[nH]cc(F)c(=O)[nH]1 has a documented AC50 of > 30 µM

Readout AC50 for COc1ccc(-c2cc(=S)ss2)cc1 , test system UniProt P37288, was 8.7 µM

AC50 value, target or system UniProt P37288, for CC(=O)Oc1cccc2c1C(=O)c1c(OC(C)=O)cc(C(=O)O)cc1C2=O : 25 µM

Summary line: CCOC(=O)O[C@]1(C(=O)COC(=O)CC)CC[C@H]2[C@@H]3CCC4=CC(=O)C=C[C@]4(C)[C@H]3[C@@H](O)C[C@@]21C [PREDNICARBATE] , UniProt P37288, reported AC50 = > 10 µM

The compound CCN(CC)C(C)C(=O)c1ccccc1 (stereo not drawn) , when measured on UniProt P37288, yielded AC50 of > 30 µM

Entry C=CC1=C(C(=O)O)N2C(=O)[C@@H](NC(=O)/C(=N\O)c3csc(N)n3)[C@H]2SC1 , UniProt P37288 data, AC50 value: > 30 µM

AC50 value, target or system UniProt P37288, for CC(=O)Oc1ccccc1C(=O)O : > 30 µM
